Biological target: 6-phosphofructo-2-kinase/fructose-2,6-bisphosphatase 3 (Homo sapiens, UniProt Q16875)
Sequence (Q16875 whole entry): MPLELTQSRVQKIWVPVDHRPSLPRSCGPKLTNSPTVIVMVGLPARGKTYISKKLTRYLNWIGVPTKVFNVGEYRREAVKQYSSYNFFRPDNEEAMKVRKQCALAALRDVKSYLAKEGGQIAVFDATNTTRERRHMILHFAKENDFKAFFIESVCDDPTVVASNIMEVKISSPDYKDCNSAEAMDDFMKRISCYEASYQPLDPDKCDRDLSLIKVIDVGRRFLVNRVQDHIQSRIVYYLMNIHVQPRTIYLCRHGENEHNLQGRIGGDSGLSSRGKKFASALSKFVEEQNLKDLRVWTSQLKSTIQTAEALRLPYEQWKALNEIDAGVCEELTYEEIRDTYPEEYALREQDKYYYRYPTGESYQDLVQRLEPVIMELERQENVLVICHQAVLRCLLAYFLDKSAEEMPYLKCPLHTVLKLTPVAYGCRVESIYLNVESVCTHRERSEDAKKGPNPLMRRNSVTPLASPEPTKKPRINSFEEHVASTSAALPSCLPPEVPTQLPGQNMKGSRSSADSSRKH
Assay: Inhibition of iPFK2 (unknown origin) assessed as reduction in enzyme-mediated fructose-6-phosphate phosphorylation by measuring ATP consumption incubated for 3 hrs by luciferase-luciferin-coupled chemiluminescence assay
pIC50: −log10 of the molar value.
Recorded pIC50 values for a group of compounds are listed next.
ENDPOINT: pIC50

- COc1cccc(-c2cc(NC(C)c3cccc(-c4cnn(C)c4)c3)nc(C)n2)c1F (stereo not given): 6.30
- Cc1nc(NC(C)c2cccc(OCCS(C)(=O)=O)c2)cc(-c2ccc3ncsc3c2)n1 (stereo not given): < 6.00
- Cc1nc(NC(C)c2cccc(Br)c2)cc(-c2ccc3ncsc3c2)n1 (stereo not given): 6.30
- COc1ccc2c(c1)CCCC2Nc1cc(-c2ccc3ncsc3c2)nc(C)n1 (stereo not given): 6.30
- COc1cccc([C@H](C)Nc2cc(-c3ccc(F)cc3)nc(C)n2)c1: < 6.00
- Cc1nc(NC(C)c2cccc(-c3cccnc3F)c2)cc(-c2ccc3ncsc3c2)n1 (stereo not given): < 6.00
- CCCOc1cccc(C(C)Nc2cc(-c3ccc4ncsc4c3)nc(C)n2)c1 (stereo not given): < 6.00
- COc1ccc(Br)c(CNc2cc(-c3ccc4ncsc4c3)nc(C)n2)c1: < 6.00
- Cc1nc(NC2CCOc3ccc([N+](=O)[O-])cc32)cc(-c2ccc3ncsc3c2)n1 (stereo not given): < 6.00
- Cc1nc(NC(C)c2cccc(NC(N)=O)c2)cc(-c2ccc3ncsc3c2)n1 (stereo not given): < 6.00
